- Test system: Homo sapiens (human subject panel, olfactory perception)
- Assay Protocol: perceived odor intensity rating (rating 0-100); higher = stronger perceived smell
- Condition Notes: odor dilution in paraffin oil: 1/10
perceived odor intensity rating below 60 gives not fulfilled; perceived odor intensity rating at or above it gives fulfilled.

> print(dat)
                                   compound  discrete.label
1                                 O=C1CCCC1       fulfilled
2                         CCCCCCCCCCCCCCCCO   not fulfilled
3                N[C@@H](Cc1c[nH]cn1)C(=O)O   not fulfilled
4  CC(=O)CCc1ccc(O)cc1 [4-(4-Hydroxyphenyl)-2-butanone]   not fulfilled
5                        O=Cc1ccc2c(c1)OCO2       fulfilled
6  CCCCCCCC(=O)OCCC(C)C [Isoamyl octanoate]       fulfilled
7  C/C=C(\C)C(=O)OCC/C=C\CC [cis-3-Hexenyl tiglate]       fulfilled
